Biological target: prion protein (recombinant mouse PrP, recPrP) (Mus musculus)
Construct: gene Prnp
Sequence (P04925 23-231 limits assumed): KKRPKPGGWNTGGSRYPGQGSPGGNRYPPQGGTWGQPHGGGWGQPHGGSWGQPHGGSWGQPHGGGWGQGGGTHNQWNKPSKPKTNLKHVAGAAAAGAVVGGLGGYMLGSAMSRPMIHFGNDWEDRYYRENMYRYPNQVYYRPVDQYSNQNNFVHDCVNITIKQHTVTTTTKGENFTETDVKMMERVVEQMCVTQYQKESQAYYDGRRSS
Assay: biochemical
assay metric: EC50 (µM)
Write it as a number; the unit µM goes unstated.

Query: Reported EC50 for `O=C(NNC(=S)Nc1ccc(Cl)cc1)c1cc2cccc(O)c2cc1O` : what is it?
Response: 4.6

====

Target: prion protein (recombinant mouse PrP, recPrP) (Mus musculus)
Construct: gene Prnp
Experiment: biochemical
assay metric: pEC50
Answer as the number alone; pEC50 is minus log10 of concentration in mol/L.

Query: # query: pEC50 of entry CCOc1cc(C(=O)NNC(=S)Nc2ccc(Cl)cc2)c(O)c2ccccc12 [7y]
Response: 5.30
